test: solvent given as SMILES; details: in CCCCCCCCCCCCCC
Kindly state fluorescence lifetime for each of the entries shown.
Numbers only; they are read as ns.

Item `CCCCCCC(CCCCCC)N1C(=O)c2cccc3c(-c4ccc(C#N)cc4)ccc(c23)C1=O` has what recorded fluorescence lifetime?
0.994

Same for `CCCCCCC(CCCCCC)N1C(=O)c2cccc3c(-c4ccc(OC)c5ccccc45)ccc(c23)C1=O`
1.83

Would you mind doing `CCCCCCC(CCCCCC)N1C(=O)c2cccc3c(-c4ccc(N(C)C)cc4)ccc(c23)C1=O` as well?
3.61

Then this molecule: `CCCCCCC(CCCCCC)N1C(=O)c2cccc3c(-c4ccc(OC)cc4)ccc(c23)C1=O`
3.12
